# MEASURED TARGET: T1, human S100A4 dimer (Homo sapiens, UniProt P26447 1-101)
# T1 construct: In the SPR it was captured on an anti-His surface, so it carried a His tag; also called recombinant human S100A4 dimer
# T1 sequence (P26447 whole entry, one chain of several): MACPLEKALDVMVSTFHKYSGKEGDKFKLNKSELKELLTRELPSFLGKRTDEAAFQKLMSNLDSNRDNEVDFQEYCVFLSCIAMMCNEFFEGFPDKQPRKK
# EXPERIMENT SUMMARY: SPR, Biacore T200, 25 C; S100A4 captured via anti-His, antibody as analyte (0.78-200 nM), 1:1 fit
RECORDED METRIC: koff (s⁻¹)
Field format: number, assumed s⁻¹, no unit text.

For orientation, consider the following solved cases.
[[record]]
binder = "VH1 VL3_L44Leu (antibody, V domains shown, Humanized antibody; also called VH1:VL3_Leu44; Leu44) VH: QVQLQESGPGLVKPSQTLSLTCTVSGDSFTNDYYWNWIRQHPGKGLEWIGHIGYGGNINYNPSLKNRLSMSRDTSKNQFSLKLSSVTAADTAVYYCTRESFYDGYPFDYWGQGTLVTVSS VL: DIQMTQSPSSLSASVGDRVTITCRASQDIRNYLNWYQQKPGKALKLLLYYTSRLHSGVPSRFSGSGSGTDYTLTISSLQPEDFATYYCQQGNSLPRTFGGGTKVEIK"
test_value = 0.000537

[[record]]
binder = "VH1 VL3_L42Gly+L44Leu (antibody, V domains shown) VH: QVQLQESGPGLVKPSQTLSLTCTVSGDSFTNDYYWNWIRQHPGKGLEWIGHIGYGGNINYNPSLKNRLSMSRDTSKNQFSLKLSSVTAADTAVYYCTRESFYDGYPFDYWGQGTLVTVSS VL: DIQMTQSPSSLSASVGDRVTITCRASQDIRNYLNWYQQKPGGALKLLLYYTSRLHSGVPSRFSGSGSGTDYTLTISSLQPEDFATYYCQQGNSLPRTFGGGTKVEIK"
test_value = 0.000523


Looking for the measured koff of VH1 VL3 (antibody, V domains shown, Humanized antibody) VH: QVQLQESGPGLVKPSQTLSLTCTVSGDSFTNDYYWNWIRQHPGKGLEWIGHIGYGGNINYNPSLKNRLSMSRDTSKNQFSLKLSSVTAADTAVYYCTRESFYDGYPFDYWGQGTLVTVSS VL: DIQMTQSPSSLSASVGDRVTITCRASQDIRNYLNWYQQKPGKAPKLLLYYTSRLHSGVPSRFSGSGSGTDYTLTISSLQPEDFATYYCQQGNSLPRTFGGGTKVEIK , can you help? 0.000674
